Quick list: MIC per entry.
- System: S. aureus Newman
- Protocol Text: MIC, microbroth dilution susceptibility assay
- Format: cell-based
- Test Context: Staphylococcus aureus, NEWMAN; small panel, Tables 1a/1b; read-out: MIC S. aureus Newman

The following compounds have reported results that may help.
CC(C)Oc1c(NC(=O)c2ccc(NC(=O)[C@H](CC(N)=O)NC(=O)c3ccc(NC(=O)C(C)Oc4ccccc4)cc3)cc2)ccc(C(=O)Nc2ccc(C(=O)O)cc2)c1O (stereo partly drawn) = > 64 µg/mL
CC(C)Oc1cc(C(=O)Nc2ccc(C(=O)O)cc2)ccc1NC(=O)c1ccc(NC(=O)[C@H](CC(N)=O)NC(=O)c2ccc(NC(=O)c3ccc([N+](=O)[O-])cc3)cc2)cc1 = > 64 µg/mL

We now examine a further compound.
**Q:** API: value(readout=MIC, system=S. aureus Newman) for record `CC(C)Oc1c(NC(=O)c2ccc(NC(=O)[C@H](CC(N)=O)NC(=O)c3ccc(NC(=O)c4ccc([N+](=O)[O-])c(OC(C)C)c4O)cc3)cc2)ccc(C(=O)Nc2ccc(C(=O)O)cc2)c1O`
**A:** > 64 µg/mL

---

- System: S. aureus Newman
- Protocol Text: MIC, microbroth dilution susceptibility assay
- Assay type: cell-based
- Test Context: Staphylococcus aureus, NEWMAN; small panel, Tables 1a/1b; read-out: MIC S. aureus Newman
Quick list: MIC per entry.

CC(C)Oc1c(NC(=O)c2ccc(NC(=O)[C@H](CC(N)=O)NC(=O)c3ccc(NC(=O)c4ccc(C#N)cc4)cc3)cc2)ccc(C(=O)N[C@@H]2CONC2=O)c1O [Compound 93] = > 64 µg/mL
CO[C@@H](C(N)=O)[C@H](NC(=O)c1ccc(NC(=O)c2ccc(C#N)cc2)cc1)C(=O)Nc1ccc(C(=O)Nc2ccc(C(=O)Nc3ccc(C(=O)O)cc3)c(O)c2OC(C)C)cc1 [Compound 109] = < 0.03 µg/mL

**Q:** # query: MIC of entry CC(C)Oc1c(NC(=O)c2ccc(NC(=O)[C@H](CC(N)=O)NC(=O)c3ccc(NC(=O)c4cccc([N+](=O)[O-])c4)cc3)cc2)ccc(C(=O)Nc2ccc(C(=O)O)cc2)c1O [Compound 41]
**A:** > 64 µg/mL

---

- Test system: S. aureus Newman
- Protocol Text: MIC, microbroth dilution susceptibility assay
- Assay type: cell-based
- Test Context: Staphylococcus aureus, NEWMAN; small panel, Tables 1a/1b; read-out: MIC S. aureus Newman
Quantity Measured: MIC (mg/L)
Kindly provide the numeric value in mg/L only, without the unit symbol.

CC(C)COc1c(NC(=O)c2ccc(NC(=O)[C@H](CC(N)=O)NC(=O)c3ccc(NC(=O)c4ccc([N+](=O)[O-])cc4)cc3)cc2)ccc(C(=O)Nc2ccc(C(=O)O)cc2)c1O = 1
CC(C)Oc1c(NC(=O)c2ccc(NC(=O)[C@H](CC(N)=O)NC(=O)c3ccc(NC(=O)c4ccc5c(c4)COC5=O)cc3)cc2)ccc(C(=O)Nc2ccc(C(=O)O)cc2)c1O = 1
C/C(=C\c1ccc(C#N)cc1)C(=O)Nc1ccc(C(=O)N[C@@H](CC(N)=O)C(=O)Nc2ccc(C(=O)Nc3ccc(C(=O)Nc4ccc(C(=O)O)c(O)c4OC(C)C)c(O)c3OC(C)C)cc2)cc1 = 0.06
CC(C)Oc1c(NC(=O)c2ccc(NC(=O)c3ccc(NC(=O)[C@H](CC(N)=O)NC(=O)c4ccc(NC(=O)c5ccc([N+](=O)[O-])cc5)cc4)cc3)c(OC(C)C)c2O)ccc(C(=O)O)c1O = 0.05

**Q:** # query: MIC of entry `CC(C)Oc1c(NC(=O)c2ccc(NC(=O)[C@H](CC(N)=O)NC(=O)c3ccc(NC(=O)c4ccc(NC(N)=O)cc4)cc3)cc2)ccc(C(=O)Nc2ccc(C(=O)O)cc2)c1O`
**A:** 64

**Q:** Another compound to look at: `CC(C)Oc1c(NC(=O)c2ccc(NC(=O)[C@H](CC(N)=O)NC(=O)c3ccc(NC(=O)c4ccc(C#N)c(F)c4)cc3)cc2)ccc(C(=O)Nc2ccc(C(=O)O)cc2)c1O`
**A:** 2

**Q:** Another compound to look at: `C/C(=C\c1ccc(C#N)cc1)C(=O)Nc1ccc(C(=O)N[C@@H](CC(N)=O)C(=O)Nc2ccc(C(=O)Nc3ccc(C(=O)Nc4ccc(C(=O)O)cc4)c(O)c3OC(C)C)cc2)cc1`
**A:** 0.06

**Q:** Another compound to look at: `Cc1cc(C(=O)Nc2ccc(C(=O)N[C@@H](CC(N)=O)C(=O)Nc3ccc(C(=O)Nc4ccc(C(=O)Nc5ccc(C(=O)O)cc5)c(O)c4OC(C)C)cc3)cc2)ccc1C#N`
**A:** 2

---

- System: E. coli ΔtolC
- Protocol Text: microbe, parasite or virus in culture
- Assay type: cell-based
- Test Context: Escherichia coli, 16 h, read-out: MIC E. coli ΔtolC, small panel, Tables 1a/1b; no visual growth after approx. 16 h
Quantity Measured: MIC

CC(C)Oc1c(NC(=O)c2ccc(NC(=O)[C@H](CC(N)=O)NC(=O)c3ccc(NC(=O)c4ccc([N+](=O)[O-])cc4)cc3)cc2)ccc(C(=O)Nc2ccc(C(N)=O)cc2)c1O [Compound 78] = ≤ 0.03 µg/mL
CC(C)COc1c(NC(=O)c2ccc(NC(=O)[C@H](CC(N)=O)NC(=O)c3ccc(NC(=O)c4ccc([N+](=O)[O-])cc4)cc3)cc2)ccc(C(=O)Nc2ccc(C(=O)O)cc2)c1O [Compound 65] = > 64 µg/mL
CC(C)Oc1c(NC(=O)c2ccc(NC(=O)[C@H](CC(N)=O)NC(=O)c3ccc(NC(=O)c4ccc(C#N)c(F)c4)cc3)cc2)ccc(C(=O)Nc2ccc(C(=O)O)cc2)c1O [Compound 51] = ≤ 0.03 µg/mL
CC(C)Oc1c(NC(=O)c2ccc(NC(=O)[C@H](CC(N)=O)NC(=O)c3ccc(NC(=O)c4ccc(C#N)cc4)cc3)cc2)ccc(C(=O)NC2CCNCC2)c1O [Compound 91] = > 64 µg/mL
CC(C)Oc1c(NC(=O)c2ccc(NC(=O)[C@H](CC(N)=O)NC(=O)c3ccc(NC(=O)c4ccc(S(C)(=O)=O)cc4)cc3)cc2)ccc(C(=O)Nc2ccc(C(=O)O)cc2)c1O [Compound 56] = < 0.03 µg/mL

We now examine a further compound.
**Q:** API: value(readout=MIC, system=E. coli ΔtolC) for record CC(C)COc1c(NC(=O)c2ccc(NC(=O)[C@H](CC(N)=O)NC(=O)c3ccc(NC(=O)c4ccc(C#N)cc4)cc3)cc2)ccc(C(=O)Nc2ccc(C(=O)O)cc2)c1O [Compound 126]
**A:** < 0.03 µg/mL

---

- Test system: S. aureus Newman
- Protocol Text: MIC, microbroth dilution susceptibility assay
- Assay type: cell-based
- Test Context: Staphylococcus aureus, NEWMAN; small panel, Tables 1a/1b; read-out: MIC S. aureus Newman
Quick list: MIC per entry.

CC(C)Oc1c(NC(=O)c2ccc(NC(=O)[C@H](CC(N)=O)NC(=O)c3ccc(NC(=O)c4ccc(C#N)cc4)cc3)cc2)ccc(C(=O)Nc2ccc(S(=O)(=O)O)cc2)c1O [Compound 92] = > 64 µg/mL
CC(C)Oc1c(NC(=O)c2ccc(NC(=O)[C@H](CC(N)=O)NC(=O)c3ccc(NC(=O)c4ccc(C#N)cc4)cc3)cc2)ccc(C(=O)NC2CCNCC2)c1O [Compound 91] = > 64 µg/mL
CC(C)Oc1c(NC(=O)c2ccc(NC(=O)[C@H](CC(N)=O)NC(=O)c3ccc(NC(=O)c4ccc(NC(=O)c5ccc([N+](=O)[O-])cc5)cc4)cc3)cc2)ccc(C(=O)Nc2ccc(C(=O)O)cc2)c1O [Compound 47] = > 64 µg/mL

We now examine a further compound.
**Q:** # query: MIC of entry CC(C)Oc1c(NC(=O)c2ccc(NC(=O)[C@H](CC(N)=O)NC(=O)c3ccc(NC(=O)c4ccc(C#N)cc4)cc3)cc2)ccc(C(=O)NCc2ccc(C(=O)O)cc2)c1O [Compound 89]
**A:** > 64 µg/mL

Source: patent US11034648B2
